system tested: Tripartite terminase subunit 3 (Human betaherpesvirus 5)
Sequence (whole entry): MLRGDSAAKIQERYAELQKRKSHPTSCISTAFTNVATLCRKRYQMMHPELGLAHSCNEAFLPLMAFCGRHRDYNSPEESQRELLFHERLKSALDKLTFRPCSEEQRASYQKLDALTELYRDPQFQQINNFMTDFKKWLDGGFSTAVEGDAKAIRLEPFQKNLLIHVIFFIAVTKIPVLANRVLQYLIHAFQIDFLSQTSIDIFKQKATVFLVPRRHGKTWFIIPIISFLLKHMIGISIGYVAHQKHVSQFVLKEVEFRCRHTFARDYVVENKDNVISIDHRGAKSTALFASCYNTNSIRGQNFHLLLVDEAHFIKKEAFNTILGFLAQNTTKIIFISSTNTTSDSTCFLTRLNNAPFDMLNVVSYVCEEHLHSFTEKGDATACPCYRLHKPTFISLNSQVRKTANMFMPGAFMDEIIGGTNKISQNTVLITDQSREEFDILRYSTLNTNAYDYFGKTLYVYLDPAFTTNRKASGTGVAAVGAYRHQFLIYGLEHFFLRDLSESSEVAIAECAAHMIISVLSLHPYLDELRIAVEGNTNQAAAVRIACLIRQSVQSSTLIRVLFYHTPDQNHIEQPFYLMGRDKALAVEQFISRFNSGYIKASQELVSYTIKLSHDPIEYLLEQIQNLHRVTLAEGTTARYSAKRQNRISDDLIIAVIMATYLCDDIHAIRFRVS
assay protocol: Inhibition of Human Cytomegalovirus C-terminal UL89 […] using (5-tcggtgcgggcctcttcgctattacgccagctggcgaaagggggatgtgctgcaaggcga as a substrate preincubated for 15 mins followed by substrate addition at 20 uM and measured after 30 mins by plate reader endonuclease assay relative to control
test parameters: time 45.0 min
parameter measured: inhibition
Write the numeric value and follow it with the unit.

Any idea what inhibition was measured for O=C(NCc1ccc(F)cc1F)c1cn(Cc2ccc(F)cc2)cc(O)c1=O ?
14%

Similarly, COc1cn(Cc2ccc(F)cc2)cc(C(=O)NCc2ccc(F)cc2F)c1=O ?
6%

Similarly, O=C(NCCc1ccc(F)cc1F)c1cn(Cc2ccc(F)cc2)cc(O)c1=O ?
10%

Similarly, O=C(NCc1ccc(F)cc1F)c1cn(Cc2ccc(F)cc2)ccc1=O ?
5%

====

Provide the recorded CC50 at 24 h for the entries that follow.
assay protocol: Cytotoxicity against human HFF-1 cells assessed as induction of cell death incubated for 24 hrs by MTT assay
Format: toxicity, cell-based

Any idea what CC50 at 24 h was measured for O=c1[nH]c2sc3c(c2c(=O)n1O)CCN(Cc1ccccc1)C3 ?
> 50 µM

Similarly, O=c1[nH]c2cc(-c3ccccc3)sc2c(=O)n1O ?
> 50 µM

====

system tested: Human immunodeficiency virus type 1 integrase (Human immunodeficiency virus 1, UniProt Q7ZJM1, G140S/Q148K)
parameter measured: pIC50
Would you please state pIC50, meaning minus log10 of the concentration in mol/L, as a bare number?

Any idea what pIC50 was measured for O=C(NCc1ccccc1)c1nc(-c2cccs2)nc(O)c1O ?
5.59

====

assay protocol: Cytotoxicity against human HFF cells assessed as reduction in cell viability incubated for 72 hrs by MTT assay
Format: toxicity, cell-based
parameter measured: CC50 at 72 h (µM)
Enter your answer as a number in µM; do not include the unit.

Any idea what CC50 at 72 h was measured for CCc1ccccc1Sc1cc(=O)n(O)c(=O)n1C ?
20

====

system tested: Human immunodeficiency virus type 1 reverse transcriptase (Human immunodeficiency virus 1, UniProt Q72547)
assay protocol: Inhibition of HIV-1 reverse transcriptase associated RNA-dependent DNA polymerase
parameter measured: IC50 (µM)
Enter your answer as a number in µM; do not include the unit.

Any idea what IC50 was measured for CC(C)c1cn(COCc2ccccc2)c(=O)n(O)c1=O ?
5.4

====

system tested: UniProt Q72547
assay protocol: Inhibition of HIV-1 reverse transcriptase
parameter measured: pIC50
Would you please state pIC50, meaning minus log10 of the concentration in mol/L, as a bare number?

Any idea what pIC50 was measured for CC(C)c1cn(COCc2ccccc2)c(=O)[nH]c1=O ?
7.40

====

Provide the recorded Papp for the entries that follow.
assay protocol: Permeability of the compound at pH 7.4 by PAMPA method
Assay type: ADME
test parameters: read-out: permeability

Any idea what Papp was measured for O=c1[nH]c2sc(-c3ccccc3)cc2c(=O)n1O ?
0.5 ×10⁻⁶ cm/s

Similarly, O=c1[nH]c2sc3c(c2c(=O)n1O)CCNC3 ?
0.1 ×10⁻⁶ cm/s

Similarly, O=c1[nH]c2sccc2c(=O)n1O ?
0.1 ×10⁻⁶ cm/s

Similarly, O=c1[nH]c2c3c(sc2c(=O)n1O)CCCC3 ?
1 ×10⁻⁶ cm/s

Similarly, O=c1[nH]c2ccsc2c(=O)n1O ?
0.1 ×10⁻⁶ cm/s

Similarly, O=c1[nH]c2c3c(sc2c(=O)n1O)CCC3 ?
0.3 ×10⁻⁶ cm/s

Similarly, O=C1c2ccccc2C(c2ccccc2F)C(=O)N1O (stereo unspecified) ?
3 ×10⁻⁶ cm/s

Similarly, O=c1[nH]c2sc(-c3ccc(Cl)cc3)cc2c(=O)n1O ?
0.5 ×10⁻⁶ cm/s

Similarly, O=c1[nH]c2cc(-c3ccccc3)ccc2c(=O)n1O ?
2 ×10⁻⁶ cm/s

Similarly, O=c1[nH]c2sc3c(c2c(=O)n1O)CCC3 ?
0.4 ×10⁻⁶ cm/s

Similarly, O=c1[nH]c2sc3c(c2c(=O)n1O)CCN(Cc1ccccc1)C3 ?
0.2 ×10⁻⁶ cm/s

====

system tested: Tripartite terminase subunit 3 (Human betaherpesvirus 5)
assay protocol: Inhibition of Human Cytomegalovirus C-terminal UL89 […] using (5-tcggtgcgggcctcttcgctattacgccagctggcgaaagggggatgtgctgcaaggcga as a substrate preincubated for 15 mins followed by substrate addition and measured after 30 mins by plate reader endonuclease assay
Provide the recorded pIC50 for the entries that follow.
Would you please state pIC50, meaning minus log10 of the concentration in mol/L, as a bare number?

Any idea what pIC50 was measured for O=c1[nH]c2sc3c(c2c(=O)n1O)CCC3 ?
6.32

Similarly, O=c1cc(Nc2ccc(-c3ccc(Cl)cc3)cc2)[nH]c(=O)n1O ?
5.03

Similarly, O=c1[nH]c2sc3c(c2c(=O)n1O)CCN(Cc1ccccc1)C3 ?
5.96

Similarly, Cc1ccc(CNC(=O)c2nc(Cl)c3cccnc3c2O)cc1 ?
5.74

Similarly, O=C(O)c1c[nH]cc(O)c1=O ?
4.85

Similarly, Cn1c(Nc2ccc(-c3cccc(C#N)c3)cc2)cc(=O)n(O)c1=O ?
6.13

Similarly, O=c1[nH]c2cc(-c3ccccc3)ccc2c(=O)n1O ?
5.19

====

System: Human immunodeficiency virus 1
assay protocol: Antiviral activity against HIV-1 assessed as viral growth inhibition
Type: functional, organism-based
parameter measured: pEC50
Would you please state pEC50, meaning minus log10 of the concentration in mol/L, as a bare number?

Any idea what pEC50 was measured for CC(C)c1cn(COCc2ccccc2)c(=O)n(O)c1=O ?
8.10

====

system tested: Integrase (Human immunodeficiency virus 1, UniProt Q76353, Q148K)
assay protocol: Inhibition of HIV-1 integrase Q148K mutant
parameter measured: IC50

Any idea what IC50 was measured for CC(C)c1cn(COCc2ccccc2)c(=O)[nH]c1=O ?
> 333 µM

====

system tested: Human immunodeficiency virus type 1 integrase (Human immunodeficiency virus 1, UniProt Q7ZJM1, R263K)
assay protocol: Inhibition of HIV-1 integrase DTG-resistant R263K mutant
Provide the recorded IC50 for the entries that follow.
Enter your answer as a number in nM; do not include the unit.

Any idea what IC50 was measured for O=c1c2cc(Cc3ccccc3)ccc2oc2ccc(O)c(O)c12 ?
600

Similarly, O=C(O)C(=O)CC(=O)c1cccc(Cc2ccccc2)c1 ?
10

Similarly, O=C(c1cc(Cc2ccccc2)cc(CN2CCCS2(=O)=O)c1)c1ncc2cccnc2c1O ?
10

Similarly, O=C(NCc1ccc(F)cc1)c1ncc2cccnc2c1O ?
33

====

system tested: Tripartite terminase subunit 3 (Human betaherpesvirus 5)
assay protocol: Inhibition of Human Cytomegalovirus C-terminal UL89 […] using (5-tcggtgcgggcctcttcgctattacgccagctggcgaaagggggatgtgctgcaaggcga as a substrate preincubated for 15 mins followed by substrate addition and measured after 30 mins by plate reader endonuclease assay
pIC50: −log10 of the molar value.
Everything with pIC50 lower than 6 is label 0; everything else, including exactly 6, is label 1.

Threshold query (pIC50 >= 6) on COc1ccc(-c2ccc(Nc3cc(=O)n(O)c(=O)n3C)cc2)cc1
label 0

Similarly, O=c1[nH]c2sc(-c3ccc(Cl)cc3)cc2c(=O)n1O ?
label 1

Similarly, Cc1ccc(-c2ccc(Nc3cc(=O)n(O)c(=O)n3C)cc2)cc1 ?
label 0

Similarly, O=c1[nH]c2ccsc2c(=O)n1O ?
label 1

Similarly, Cn1c(Nc2ccc(-c3ccc(C(F)(F)F)cc3)cc2)cc(=O)n(O)c1=O ?
label 0

Similarly, O=c1[nH]c2cc(-c3ccccc3)sc2c(=O)n1O ?
label 1

Similarly, O=c1[nH]c2c3c(sc2c(=O)n1O)CCC3 ?
label 1

Similarly, CCn1cc(O)c(=O)c(C(=O)O)c1 ?
label 0
